- MEASUREMENT TARGET: HLA-A*69:01
- ASSAY COMMENT: IEDB peptide-MHC binding, purified MHC/direct/fluorescence; filed as Kd, often an IC50 or EC50 that approximates it; bounds were set here for any values at or beyond the usual limits of such assays
- RUN PARAMETERS: source organism: Homo sapiens
READOUT KIND: Kd (µM)
Please respond with the number in µM and leave the unit unwritten.

Specify reported Kd for the sequence shown: YTAVVPLVY
1.31

* * *

- MEASUREMENT TARGET: HLA-B*44:02
- ASSAY COMMENT: IEDB peptide-MHC binding, purified MHC/direct/fluorescence; filed as Kd, often an IC50 or EC50 that approximates it; bounds were set here for any values at or beyond the usual limits of such assays
- RUN PARAMETERS: source organism: Camelpox virus M-96
pKd: −log10 of the molar value.
READOUT KIND: pKd

Specify reported pKd for the sequence shown: VMCIQMKYV
≤ 4.70

Where these numbers come from: the Immune Epitope Database (IEDB)
